Biological target: human factor XIa (Homo sapiens, UniProt P03951)
Construct: purchased Haematologic Technologies (Essex Junction, Vt.); host or cells: human plasma
Sequence (P03951 19-387 limits assumed): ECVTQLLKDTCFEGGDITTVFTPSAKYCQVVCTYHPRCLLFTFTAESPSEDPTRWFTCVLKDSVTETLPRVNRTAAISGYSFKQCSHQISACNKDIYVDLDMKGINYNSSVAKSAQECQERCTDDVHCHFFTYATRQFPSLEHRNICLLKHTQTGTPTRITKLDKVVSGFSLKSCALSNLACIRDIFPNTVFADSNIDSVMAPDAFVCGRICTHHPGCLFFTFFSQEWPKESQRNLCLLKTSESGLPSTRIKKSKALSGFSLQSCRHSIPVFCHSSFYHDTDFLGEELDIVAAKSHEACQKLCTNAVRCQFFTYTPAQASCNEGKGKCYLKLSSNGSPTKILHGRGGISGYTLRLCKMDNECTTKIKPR
Sequence (P03951 388-625 limits assumed): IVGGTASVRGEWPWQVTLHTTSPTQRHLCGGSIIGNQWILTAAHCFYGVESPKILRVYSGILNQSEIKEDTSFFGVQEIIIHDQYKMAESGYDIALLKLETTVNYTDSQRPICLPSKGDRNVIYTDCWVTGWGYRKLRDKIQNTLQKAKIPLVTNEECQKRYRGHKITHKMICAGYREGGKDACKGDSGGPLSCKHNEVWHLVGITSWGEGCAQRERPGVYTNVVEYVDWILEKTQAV
Test: Direct inhibition of factor XIa, chromogenic substrate S-2366 hydrolysis assay
Format: biochemical
Conditions: sulfated QAOs
Description: Solvent A consisted of 25 mM n-hexylamine in water containing 0.1% (v/v) formic acid, while solvent B consisted of 25 mM n-hexylamine in acetonitrile-water mixture (3:1 v/v) containing 0.1% (v/v) formic acid. […] The sample was first monitored for absorbance in the range of 190-400 nm and then directly introduced into the mass spectrometer. […]
Please go through the items and note down their ΔY % (efficacy).
Numbers only; they are read as %.

Prompt line: So what's the measured ΔY % (efficacy) for this one? O=c1c2ccccc2nc(-c2cccc(OS(=O)(=O)O)c2)n1CCCCn1cc(Cn2c(-c3cccc(OS(=O)(=O)O)c3)nc3ccccc3c2=O)nn1 [Inhibitor 8S]
Response line: 100

Prompt line: Endpoint output: ΔY % (efficacy) of COc1cc(-c2nc3ccccc3c(=O)n2CCCCn2cc(Cn3c(-c4ccc(OS(=O)(=O)O)c(OC)c4)nc4ccccc4c3=O)nn2)ccc1OS(=O)(=O)O [Inhibitor 10S] . Value?
Response line: 95

Prompt line: // lookup ΔY % (efficacy) for O=c1c2ccccc2nc(-c2cccc(OS(=O)(=O)O)c2)n1CCCCn1cc(Cn2c(-c3cc(OS(=O)(=O)O)cc(OS(=O)(=O)O)c3)nc3ccccc3c2=O)nn1 [Inhibitor 18S]
Response line: 93

Prompt line: What ΔY % (efficacy) value was documented for this compound, O=c1c2ccccc2nc(-c2ccc(OS(=O)(=O)O)cc2)n1CCCCCn1nncc1Cn1c(-c2ccc(OS(=O)(=O)O)cc2)nc2ccccc2c1=O [Inhibitor 29S] ?
Response line: 94

Prompt line: // ΔY % (efficacy) lookup, key: CC(=O)Oc1cc(OS(=O)(=O)O)cc(-c2nc3ccccc3c(=O)n2CCCCn2cc(Cn3c(-c4cc(OS(=O)(=O)O)cc(OS(=O)(=O)O)c4)nc4ccccc4c3=O)nn2)c1 [Inhibitor 19S]
Response line: 91

Prompt line: Which ΔY % (efficacy) value is on record for O=c1c2ccccc2nc(-c2cccc(OS(=O)(=O)O)c2)n1CCCCn1cc(Cn2c(-c3ccc(OS(=O)(=O)O)cc3)nc3ccccc3c2=O)nn1 [Inhibitor 14S] ?
Response line: 103

Prompt line: Need ΔY % (efficacy), item O=c1c2ccccc2nc(-c2ccc(OS(=O)(=O)O)cc2)n1CCCCCCn1cc(Cn2c(-c3ccc(OS(=O)(=O)O)cc3)nc3ccccc3c2=O)nn1 [Inhibitor 16S]
Response line: 97

Prompt line: Reported ΔY % (efficacy), compound O=c1c2ccccc2nc(-c2ccc(OS(=O)(=O)O)cc2)n1CCCCCn1cc(Cn2c(-c3ccc(OS(=O)(=O)O)cc3)nc3ccccc3c2=O)nn1 [Inhibitor 15S] : ____
Response line: 89
